Hello, the source for this data is patent US20260297042A1, in case you need it.

study-target: WEE1 (Homo sapiens)
Construct: purchased Thermo Fisher PR7373A
experimental-details: Selectivity versus WEE1 assay (ADP-Glo enzymatic assay)
Assay type: biochemical
experimental-parameters: ADP-Glo; 15 nM WEE1, 60 minutes at 26° C.; banded
Structures can show the parent of a compound that is named as a salt.
Provide the reported IC50 of each item.

Below: 3 molecules and their reported IC50.
{"molecule": "Cc1ccc(O)c(C)c1NC(=O)c1cnc(Nc2ccc(NC(=O)CC(C)C)cn2)s1", "assay-endpoint": "IC50", "measured-value": "1 to 11 µM"}
{"molecule": "Cc1ccc(O)c(C)c1NC(=O)c1cnc(Nc2ccn(C3CCNCC3)n2)s1 [BAA-055, (hydrochloride)]", "assay-endpoint": "IC50", "measured-value": "> 11 µM"}
{"molecule": "Cc1ccc(O)c(C)c1NC(=O)c1cnc(Nc2cc(C(=O)O)n(C)n2)s1", "assay-endpoint": "IC50", "measured-value": "> 11 µM"}

IC50 recorded for this molecule, "CCCN1CC[C@@H](n2ccc(Nc3ncc(C(=O)Nc4c(C)ccc(O)c4C)s3)n2)C1" , is > 11 µM

----------
study-target: WEE1 (Homo sapiens)
Construct: purchased Thermo Fisher PR7373A
experimental-details: Selectivity versus WEE1 assay (ADP-Glo enzymatic assay)
Assay type: biochemical
experimental-parameters: WEE1 15 nM; ADP-Glo; banded values
assay-endpoint: IC50

{"compound": "Cc1ccc(O)c(C)c1NC(=O)c1cnc(Nc2cc(C)n(C(C)C(=O)N3CCN(C)CC3)n2)s1 (stereo not drawn) [BAA-511]", "IC50": "> 11 µM"}
{"compound": "Cc1ccc(O)c(C)c1NC(=O)c1cnc(Nc2nn(CC(=O)N3CCCC3)cc2Cl)s1 [BAA-546]", "IC50": "1 to 11 µM"}
{"compound": "Cc1ccc(O)c(C)c1NC(=O)c1cnc(Nc2ncccc2F)s1 [BAA-411]", "IC50": "> 11 µM"}
{"compound": "COc1cnc(Cl)nc1Nc1ncc(C(=O)Nc2c(C)ccc(O)c2C)s1 [BAA-568]", "IC50": "> 11 µM"}
{"compound": "Cc1cc(F)cnc1Nc1ncc(C(=O)Nc2c(C)ccc(O)c2C)s1 [BAA-419]", "IC50": "> 11 µM"}

Need IC50 for each of these compounds.
1. Cc1nccc(Nc2ncc(C(=O)Nc3c(C)ccc(O)c3C)s2)n1 [BAA-434]
2. Cc1cn(CC(=O)N2CCC(C)C2)nc1Nc1ncc(C(=O)Nc2c(C)ccc(O)c2C)s1 (stereo not drawn) [BAA-497]
3. Cc1ccc(O)c(C)c1NC(=O)c1cnc(Nc2cnn(C)c2C)s1 [BAA-520]
4. CCc1c(O)ccc(C)c1NC(=O)c1cnc(Nc2ccn(CC(=O)N3CCCC3)n2)s1 [BAA-475]

Reply:
1: > 11 µM; 2: 1 to 11 µM; 3: > 11 µM; 4: > 11 µM

----------
study-target: Human PKMYT1 (Homo sapiens)
Construct: Human PKMYT1 75-362 was cloned as a TEV cleavable 6xHis fusion; 6xHis (TEV cleavable) (cleaved yes); made in house; host or cells: bacterial cells
Sequence (Q99640 75-362): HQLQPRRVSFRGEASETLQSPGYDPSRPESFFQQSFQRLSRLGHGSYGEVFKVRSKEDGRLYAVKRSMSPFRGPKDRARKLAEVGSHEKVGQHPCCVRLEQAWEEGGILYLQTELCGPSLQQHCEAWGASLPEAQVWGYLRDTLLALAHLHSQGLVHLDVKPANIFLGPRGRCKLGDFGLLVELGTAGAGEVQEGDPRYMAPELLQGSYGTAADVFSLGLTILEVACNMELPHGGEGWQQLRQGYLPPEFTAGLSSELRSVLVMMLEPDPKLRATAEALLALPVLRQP
experimental-details: PKMYT1 biochemical ADP-Glo enzymatic assay
experimental-parameters: PKMYT1 kinase domain 15 nM; ADP-Glo; banded values
pIC50: −log10 of the molar value.
assay-endpoint: pIC50

{"compound": "COCC(C(=O)N1CCCC1)n1cc(C)c(Nc2ncc(C(=O)Nc3c(C)ccc(O)c3C)s2)n1 (stereo not drawn) [BAA-577]", "pIC50": "> 7.30"}
{"compound": "Cc1ccc(O)c(C)c1NC(=O)c1cnc(Nc2nn(CCF)cc2Cl)s1 [BAA-582]", "pIC50": "> 7.30"}
{"compound": "CCN(CCOC)C(=O)Cn1cc(C)c(Nc2ncc(C(=O)Nc3c(C)ccc(O)c3C)s2)n1 [BAA-550]", "pIC50": "> 7.30"}

Need pIC50 for each of these compounds.
1. Cc1ccc(O)c(C)c1NC(=O)c1cnc(Nc2cc(C)n(CCC#N)n2)s1 [BAA-518]
2. Cc1ccc(O)c(C)c1NC(=O)c1cnc(Nc2cccc3ccoc23)s1 [BAA-531]
3. O=C(Nc1c(F)ccc(O)c1Cl)c1cnc(Nc2ccn(CC(=O)N3CCCC3)n2)s1 [BAA-482]
4. Cc1ccc(O)c(C)c1NC(=O)c1cnc(Nc2cnn(C)c2C)s1 [BAA-520]
5. CCN(CC)C(=O)c1cc(Nc2ncc(C(=O)Nc3c(C)ccc(O)c3C)s2)nn1C [BAA-545]
6. Cc1ccc(O)c(C)c1NC(=O)c1cnc(Nc2ccccn2)s1 [BAA-421]

Reply:
1. > 7.30
2. 6.00 to 7.30
3. > 7.30
4. 6.00 to 7.30
5. 6.00 to 7.30
6. > 7.30

----------
study-target: WEE1 (Homo sapiens, UniProt P30291)
Construct: purchased Thermo Fisher PR7373A
Sequence (P30291 whole entry): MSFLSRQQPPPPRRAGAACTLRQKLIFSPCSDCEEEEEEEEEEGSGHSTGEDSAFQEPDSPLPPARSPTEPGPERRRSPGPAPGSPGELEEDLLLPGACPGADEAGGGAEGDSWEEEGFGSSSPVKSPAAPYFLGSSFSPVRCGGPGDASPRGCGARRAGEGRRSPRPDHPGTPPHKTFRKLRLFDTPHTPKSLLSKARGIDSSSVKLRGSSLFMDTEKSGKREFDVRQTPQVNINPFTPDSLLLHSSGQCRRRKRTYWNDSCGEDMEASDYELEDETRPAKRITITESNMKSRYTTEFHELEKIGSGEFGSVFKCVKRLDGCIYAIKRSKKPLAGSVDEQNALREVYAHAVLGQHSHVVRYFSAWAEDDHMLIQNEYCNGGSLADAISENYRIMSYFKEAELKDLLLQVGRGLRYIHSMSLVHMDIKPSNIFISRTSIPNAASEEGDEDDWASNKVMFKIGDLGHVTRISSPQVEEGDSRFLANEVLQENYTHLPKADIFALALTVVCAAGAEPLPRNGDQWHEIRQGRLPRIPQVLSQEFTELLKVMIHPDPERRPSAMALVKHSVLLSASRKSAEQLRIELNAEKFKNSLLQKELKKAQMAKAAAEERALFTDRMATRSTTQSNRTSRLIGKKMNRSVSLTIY
experimental-details: Selectivity versus WEE1 assay (ADP-Glo enzymatic assay)
Type: biochemical
experimental-parameters: ADP-Glo; 15 nM WEE1, 60 minutes at 26° C.; banded
pIC50: −log10 of the molar value.
assay-endpoint: pIC50

Below: 4 compounds and their reported pIC50.
{"mol": "Cc1cc(Nc2ncc(C(=O)Nc3c(C)ccc(O)c3C)s2)n(C)n1", "study-target": "WEE1 (Homo sapiens, UniProt P30291)", "pIC50": "< 4.96"}
{"mol": "Cc1ccc(O)c(C)c1NC(=O)c1cnc(Nc2ccn(CC(=O)NC(C)C)n2)s1", "study-target": "WEE1 (Homo sapiens, UniProt P30291)", "pIC50": "< 4.96"}
{"mol": "Cc1ccc(O)c(C)c1NC(=O)c1cnc(Nc2ccn(CC(=O)N3CC(F)(F)C3)n2)s1", "study-target": "WEE1 (Homo sapiens, UniProt P30291)", "pIC50": "< 4.96"}
{"mol": "CCn1ccc(Nc2ncc(C(=O)Nc3c(C)ccc(O)c3C)s2)n1", "study-target": "WEE1 (Homo sapiens, UniProt P30291)", "pIC50": "4.96 to 6.00"}

pIC50 recorded for this compound, "Cc1ccc(O)c(C)c1NC(=O)c1cnc(NCc2ccccc2C2CC2)s1" , is < 4.96

----------
Provide the reported pIC50 of each item.
study-target: Cellular PKMYT1 Biomarker CDK1 pT14 (Homo sapiens, UniProt Q99640)
Construct: read-out CDK1 phospho-T14 immunoblot
Sequence (Q99640 whole entry): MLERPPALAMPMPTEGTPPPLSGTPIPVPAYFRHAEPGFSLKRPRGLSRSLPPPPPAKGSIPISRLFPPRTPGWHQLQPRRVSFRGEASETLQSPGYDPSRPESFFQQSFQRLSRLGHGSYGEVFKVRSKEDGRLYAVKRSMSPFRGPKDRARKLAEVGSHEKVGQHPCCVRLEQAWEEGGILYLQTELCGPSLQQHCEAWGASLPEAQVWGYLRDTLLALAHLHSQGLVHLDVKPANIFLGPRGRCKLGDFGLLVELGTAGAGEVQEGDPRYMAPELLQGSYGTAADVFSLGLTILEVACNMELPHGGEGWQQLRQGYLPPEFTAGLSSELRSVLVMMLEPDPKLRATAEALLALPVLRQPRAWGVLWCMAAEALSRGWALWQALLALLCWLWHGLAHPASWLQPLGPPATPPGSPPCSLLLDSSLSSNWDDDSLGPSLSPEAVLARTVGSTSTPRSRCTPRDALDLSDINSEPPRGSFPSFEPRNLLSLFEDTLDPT
experimental-details: Inhibition of cellular PKMYT1 biomarker CDK1 pT14 in OVCAR 3 cells (immunoblot)
Assay type: cell-based
experimental-parameters: 20 hours incubation
pIC50: −log10 of the molar value. Counter-ions that a name gives are not always drawn.

Below: 6 compounds and their reported pIC50.
{"compound": "Cc1ccc(O)c(C)c1NC(=O)c1cnc(Nc2ccc3ncccc3n2)s1 [BAA-596]", "assay-endpoint": "pIC50", "measured-value": "6.00 to 7.00"}
{"compound": "Cc1ccc(O)c(C)c1NC(=O)c1cnc(Nc2cccc(N3CCN(C)CC3)n2)s1 [BAA-423]", "assay-endpoint": "pIC50", "measured-value": "> 7.00"}
{"compound": "Cc1ccc(O)c(C)c1NC(=O)c1cnc(Nc2ccc(N3CCC(F)(F)CC3)cn2)s1 [BAA-308]", "assay-endpoint": "pIC50", "measured-value": "> 7.00"}
{"compound": "Cc1ccc(O)c(C)c1NC(=O)c1cnc(Nc2ccn(C3CCN(C)C3=O)n2)s1 (stereo not drawn) [BAA-601]", "assay-endpoint": "pIC50", "measured-value": "6.00 to 7.00"}
{"compound": "Cc1ccc(O)c(C)c1NC(=O)c1cnc(Nc2ncccc2F)s1 [BAA-411]", "assay-endpoint": "pIC50", "measured-value": "6.00 to 7.00"}
{"compound": "Cc1ccc(O)c(C)c1NC(=O)c1cnc(Nc2cccc(CC(=O)N(C3CC3)C3CC3)n2)s1 [BAA-427]", "assay-endpoint": "pIC50", "measured-value": "> 7.00"}

Need pIC50 for each of these compounds.
1. CCN(C(=O)Cn1cc(C)c(Nc2ncc(C(=O)Nc3c(C)ccc(O)c3C)s2)n1)C1CC1 [BAA-551]
2. Cc1ccc(O)c(C)c1NC(=O)c1cnc(Nc2c3cccnc3nn2C)s1 [BAA-243]
3. CCc1cn(CCF)nc1Nc1ncc(C(=O)Nc2c(C)ccc(O)c2C)s1 [BAA-588]
4. Cc1cc(Nc2ncc(C(=O)Nc3c(C)ccc(O)c3C)s2)ncn1 [BAA-580]

Reply:
["> 7.00", "> 7.00", "> 7.00", "6.00 to 7.00"]

Need pIC50 for each of these compounds.
1. Cc1cn(CC(=O)N(C)C2CC2)nc1Nc1ncc(C(=O)Nc2c(C)ccc(O)c2C)s1 [BAA-554]
2. Cc1cccnc1Nc1ncc(C(=O)Nc2c(C)ccc(O)c2C)s1 [BAA-415]
3. Cc1cn(CC(=O)N2CCCC2C(F)(F)F)nc1Nc1ncc(C(=O)Nc2c(C)ccc(O)c2C)s1 (stereo not drawn) [BAA-493]
4. CCc1cn(CC#N)nc1Nc1ncc(C(=O)Nc2c(C)ccc(O)c2C)s1 [BAA-590, TFA salt]

Reply:
1: > 7.00; 2: > 7.00; 3: > 7.00; 4: > 7.00

Need pIC50 for each of these compounds.
1. Cc1cn(CC(F)(F)F)nc1Nc1ncc(C(=O)Nc2c(C)ccc(O)c2C)s1 [BAA-271]
2. Cc1cn(-c2ccn(C)n2)nc1Nc1ncc(C(=O)Nc2c(C)ccc(O)c2C)s1 [BAA-398]
3. Cc1ccc(O)c(C)c1NC(=O)c1cnc(Nc2n[nH]cc2Cl)s1 [BAA-566]
4. Cc1ccc(O)c(C)c1NC(=O)c1cnc(Nc2nccc3ccc(F)cc23)s1 [BAA-303]

Reply:
1: > 7.00; 2: > 7.00; 3: > 7.00; 4: > 7.00
